B1: LINE1-full (parent)
chain: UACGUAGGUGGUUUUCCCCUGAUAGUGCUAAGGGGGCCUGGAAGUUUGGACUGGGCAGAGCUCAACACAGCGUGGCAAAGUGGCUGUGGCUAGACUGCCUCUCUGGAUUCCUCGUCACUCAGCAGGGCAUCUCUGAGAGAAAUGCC

# Variants of: B1
# protocol-summary: self-cleavage, relative activity (ratio to wild type); higher = more cleavage; in vitro, sequencing; the parent is a self-cleaving ribozyme
Outcome label depends on self-cleavage relative to 1: at/above gives satisfied, below gives not satisfied.

Worked cases, answers included:
variant-spec: U23C U45A
cat: satisfied

variant-spec: U52G U143C
cat: satisfied

variant-spec: C113U A141G
cat: not satisfied

variant-spec: U39C U47C
cat: satisfied

variant-spec: A78G U85C
cat: not satisfied

Could you please find out whether G72A A94G has self-cleavage that meets 1 or exceeds it?
not satisfied

For this variant, is measured self-cleavage 1 or higher? A22C U115A
satisfied

Check if self-cleavage >= 1 (inclusive). Item: U47A C118A
not satisfied

Evaluate U12C C145G : self-cleavage at minimum 1?
satisfied

Does the variant U109C C113U have recorded self-cleavage that is 1 or more?
satisfied

Please indicate if the recorded self-cleavage for U104A G106A meets or exceeds 1.
not satisfied

Reported self-cleavage reaches at least 1 for C37G A92G ?
not satisfied

I'd appreciate it if you could say whether U20A C90U has self-cleavage at least equal to 1.
not satisfied

Given the entry C71U A129G , answer whether its self-cleavage meets or surpasses 1.
not satisfied

Given the entry A24G A121C , answer whether its self-cleavage meets or surpasses 1.
satisfied

# check: self-cleavage of G27A U73C is greater than or equal to 1
not satisfied

Quick check, self-cleavage >= 1? U9C C28A
satisfied
